molecular target: Stromelysin-2 (Homo sapiens); assay: Inhibition of human recombinant MMP10 at 200 uM by HxBPyne probe-based competitive activity based protein profiling assay in presence of 5 uM HxBpane competitor
The source made the active and inactive calls. The rule behind the calls is not given here.
Please reply with one of these outcomes: active, inactive

These solved cases illustrate the format of a correct answer.
stdin: Which outcome did this test record for the compound "Oc1nc(SCc2ccc(Cl)cc2)nc2c1CCC2" ?
stdout: inactive

stdin: Look up the recorded call for O=C(O)CCC(NS(=O)(=O)c1ccc(-c2ccccc2)cc1)C(=O)O (centres undefined) in this test.
stdout: active

stdin: // outcome(item) with item = "COc1ccc(CSc2nc(C)cc(O)n2)cc1"
stdout: inactive

Field: next compound
stdin: Tell me the assay call for CCCCCCOc1ccc(C(CC(=O)O)C(N)=O)cc1 (centres undefined) please.
stdout: active

====

biological target: 72 kDa type IV collagenase (Homo sapiens); assay: Inhibition of human recombinant MMP2 at 200 uM by HxBPyne probe-based competitive activity based protein profiling assay in presence of 5 uM HxBpane competitor
Active and inactive are the calls of the source. No cut-off for these calls is given here.
EXPERIMENTAL ENDPOINT: Activity

stdin: Which measured Activity value corresponds to "COc1ccc(CSc2nc(C)cc(O)n2)cc1" ?
stdout: inactive

stdin: // returns reported Activity for input O=C(O)CCC(NS(=O)(=O)c1ccc(-c2ccccc2)cc1)C(=O)O (centres undefined)
stdout: Active

stdin: Given CCCCCCOc1ccc(C(CC(=O)O)C(N)=O)cc1 (centres undefined) , state its recorded Activity.
stdout: Active

stdin: Requested read-out: Activity. Entry: "Oc1nc(SCc2ccc(Cl)cc2)nc2c1CCC2"
stdout: inactive

====

IC50 values, listed per item
target: UniProt P45452; assay: Inhibition of human recombinant MMP13 by HxBPyne probe-based competitive activity based protein profiling assay
Numeric only. Scale: µM

stdin: // lookup IC50 for "Oc1nc(SCc2ccc(Cl)cc2)nc2c1CCC2"
stdout: 3.8

stdin: Requested read-out: IC50. Entry: "COc1ccc(CSc2nc(C)cc(O)n2)cc1"
stdout: 20

stdin: Report IC50 for O=C(O)CCC(NS(=O)(=O)c1ccc(-c2ccccc2)cc1)C(=O)O (centres undefined) please.
stdout: 13

Next:
stdin: Suppose we examine the compound CCCCCCOc1ccc(C(CC(=O)O)C(N)=O)cc1 (centres undefined) ; what IC50 value has been reported?
stdout: 27

====

target: Collagenase 3 (Homo sapiens, UniProt P45452); assay: Inhibition of human recombinant MMP13 by fluorogenic substrate assay
EXPERIMENTAL ENDPOINT: IC50 (µM)
Response body: numeric value in µM, unit text excluded.

stdin: Lab request: please report IC50 under test system Collagenase 3 (Homo sapiens, UniProt P45452) for CCCCCCOc1ccc(C(CC(=O)O)C(N)=O)cc1 (centres undefined)
stdout: 1.3

stdin: Which IC50 is reported with Collagenase 3 (Homo sapiens, UniProt P45452) for this entry: "Oc1nc(SCc2ccc(Cl)cc2)nc2c1CCC2" ?
stdout: 0.92

stdin: Lab note: need IC50 for "COc1ccc(CSc2nc(C)cc(O)n2)cc1" on Collagenase 3 (Homo sapiens, UniProt P45452), anyone have it?
stdout: 1.6

stdin: Reported IC50 for Collagenase 3 (Homo sapiens, UniProt P45452), given O=C(O)CCC(NS(=O)(=O)c1ccc(-c2ccccc2)cc1)C(=O)O (centres undefined) ?
stdout: 0.28

====

target: Neutrophil collagenase (Homo sapiens, UniProt P22894); assay: Inhibition of human recombinant MMP8 at 200 uM by HxBPyne probe-based competitive activity based protein profiling assay in presence of 5 uM HxBpane competitor
Sequence (P22894 101-467 limits assumed): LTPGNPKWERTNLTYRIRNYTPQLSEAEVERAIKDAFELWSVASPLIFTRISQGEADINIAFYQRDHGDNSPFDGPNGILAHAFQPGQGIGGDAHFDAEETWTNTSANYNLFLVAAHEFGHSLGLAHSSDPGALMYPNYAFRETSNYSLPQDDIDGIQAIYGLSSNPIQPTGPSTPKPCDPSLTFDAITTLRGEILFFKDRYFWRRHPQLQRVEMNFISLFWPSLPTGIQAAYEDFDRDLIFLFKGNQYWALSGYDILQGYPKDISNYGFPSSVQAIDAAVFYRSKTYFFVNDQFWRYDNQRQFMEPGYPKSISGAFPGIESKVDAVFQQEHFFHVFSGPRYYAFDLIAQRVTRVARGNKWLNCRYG
The source made the active and inactive calls. No cut-off for these calls is given here.
Entry note: the call must match one of true = active, false = inactive

Please review the entries below; each comes with its answer.
stdin: Check the results log: what was the call for "Oc1nc(SCc2ccc(Cl)cc2)nc2c1CCC2" ?
stdout: false

stdin: What did this assay record as the result for CCCCCCOc1ccc(C(CC(=O)O)C(N)=O)cc1 (centres undefined) ?
stdout: true

stdin: Fill in: this test's call for O=C(O)CCC(NS(=O)(=O)c1ccc(-c2ccccc2)cc1)C(=O)O (centres undefined) is ___
stdout: true

Further cases:
stdin: Please indicate how the test categorized "COc1ccc(CSc2nc(C)cc(O)n2)cc1" .
stdout: false
